- Experimental System: mTRPA1 (Mus musculus, UniProt Q8BLA8)
- Sequence (Q8BLA8 whole entry): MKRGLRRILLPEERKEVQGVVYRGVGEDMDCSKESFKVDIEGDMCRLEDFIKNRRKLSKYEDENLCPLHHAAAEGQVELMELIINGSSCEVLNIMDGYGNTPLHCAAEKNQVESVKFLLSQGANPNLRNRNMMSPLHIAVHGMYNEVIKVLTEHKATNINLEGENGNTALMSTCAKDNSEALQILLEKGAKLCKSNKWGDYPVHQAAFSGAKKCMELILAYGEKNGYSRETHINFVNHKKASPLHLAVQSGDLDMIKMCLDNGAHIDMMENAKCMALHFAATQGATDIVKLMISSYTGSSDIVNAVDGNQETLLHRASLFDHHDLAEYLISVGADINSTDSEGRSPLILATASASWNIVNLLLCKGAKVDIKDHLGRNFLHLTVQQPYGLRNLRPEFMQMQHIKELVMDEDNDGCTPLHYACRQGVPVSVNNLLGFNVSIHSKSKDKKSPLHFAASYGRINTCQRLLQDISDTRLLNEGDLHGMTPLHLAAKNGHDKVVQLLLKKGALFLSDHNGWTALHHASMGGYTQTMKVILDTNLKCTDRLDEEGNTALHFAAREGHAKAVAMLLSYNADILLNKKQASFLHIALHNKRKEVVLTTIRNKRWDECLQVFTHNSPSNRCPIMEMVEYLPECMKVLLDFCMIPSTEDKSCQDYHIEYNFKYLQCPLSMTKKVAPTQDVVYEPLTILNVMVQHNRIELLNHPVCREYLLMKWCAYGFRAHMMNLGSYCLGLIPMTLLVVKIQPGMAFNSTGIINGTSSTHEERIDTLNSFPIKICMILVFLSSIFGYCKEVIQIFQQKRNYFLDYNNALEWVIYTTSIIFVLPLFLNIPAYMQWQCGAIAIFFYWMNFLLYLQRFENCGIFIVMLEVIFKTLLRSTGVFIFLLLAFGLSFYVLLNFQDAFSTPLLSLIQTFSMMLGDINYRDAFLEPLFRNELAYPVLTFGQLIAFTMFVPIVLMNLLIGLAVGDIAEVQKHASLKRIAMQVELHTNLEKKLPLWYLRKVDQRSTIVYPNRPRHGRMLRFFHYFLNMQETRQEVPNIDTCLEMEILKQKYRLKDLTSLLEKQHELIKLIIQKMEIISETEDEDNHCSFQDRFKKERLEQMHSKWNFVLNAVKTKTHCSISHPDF
- Test Protocol: Fluo-3 calcium imaging of mTRPA1-transfected HEK293T cells
Attribute Measured: EC50 (µM)
Your answer is read as µM, so omit the unit and give the number.

Can you look up the measured EC50 of CC=O for me?
1190

====

- Experimental System: hTRPA1 (Homo sapiens)
- Sequence (O75762 whole entry): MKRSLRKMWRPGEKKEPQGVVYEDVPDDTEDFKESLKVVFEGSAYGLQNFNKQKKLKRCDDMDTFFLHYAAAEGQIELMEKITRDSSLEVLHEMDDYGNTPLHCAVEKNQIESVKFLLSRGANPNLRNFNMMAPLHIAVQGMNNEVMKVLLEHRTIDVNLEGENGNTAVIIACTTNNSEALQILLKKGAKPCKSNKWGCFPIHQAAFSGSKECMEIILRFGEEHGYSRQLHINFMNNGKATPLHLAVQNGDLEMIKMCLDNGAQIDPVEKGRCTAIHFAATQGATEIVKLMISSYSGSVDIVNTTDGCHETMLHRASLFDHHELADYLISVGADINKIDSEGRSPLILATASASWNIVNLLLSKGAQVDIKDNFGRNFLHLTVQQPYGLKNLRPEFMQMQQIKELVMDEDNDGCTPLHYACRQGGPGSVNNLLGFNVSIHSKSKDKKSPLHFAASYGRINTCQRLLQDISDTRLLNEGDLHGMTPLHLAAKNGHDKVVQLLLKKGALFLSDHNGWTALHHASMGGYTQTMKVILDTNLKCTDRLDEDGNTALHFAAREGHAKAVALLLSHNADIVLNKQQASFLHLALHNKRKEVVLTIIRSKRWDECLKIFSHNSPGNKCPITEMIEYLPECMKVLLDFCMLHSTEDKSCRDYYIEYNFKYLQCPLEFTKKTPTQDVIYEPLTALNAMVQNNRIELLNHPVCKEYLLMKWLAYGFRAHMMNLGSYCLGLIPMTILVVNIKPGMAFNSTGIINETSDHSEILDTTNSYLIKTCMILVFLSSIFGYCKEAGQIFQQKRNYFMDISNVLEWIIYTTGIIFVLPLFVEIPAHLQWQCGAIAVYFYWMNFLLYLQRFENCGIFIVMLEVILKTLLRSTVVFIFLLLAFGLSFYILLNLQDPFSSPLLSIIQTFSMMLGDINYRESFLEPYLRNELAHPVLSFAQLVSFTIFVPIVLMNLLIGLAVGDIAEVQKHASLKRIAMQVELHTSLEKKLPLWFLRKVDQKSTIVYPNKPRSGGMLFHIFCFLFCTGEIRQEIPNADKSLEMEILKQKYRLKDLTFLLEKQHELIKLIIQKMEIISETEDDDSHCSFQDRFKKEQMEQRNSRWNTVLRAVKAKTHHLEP
- Test Protocol: Fluo-3 calcium imaging of hTRPA1-transfected HEK293T cells
Attribute Measured: EC50 (µM)
The figure you give is taken to be in µM; do not add the unit.

Data request, read-out EC50, for CC=O [acetaldehyde]
76.5

====

- System: trigeminal neurons
- Test Protocol: Fluo-3 calcium imaging of cultured mouse trigeminal neurons
- Reported Conditions: 1 μM PGE2 + modulator: SC-51089 10 μM, U73122 3 μM, U73343 3 μM, BIM 1 μM, chelerythrine 1 μM, H-89 10 μM
Attribute Measured: suppression of the PGE2-induced potentiation of acetaldehyde responses

{"Smiles Code": "COc1ccc2c(c[n+](C)c3c4cc5c(cc4ccc23)OCO5)c1OC", "Observed Result": "significantly suppressed"}
{"Smiles Code": "COc1ccc2c(c1)CC[C@@H]1[C@@H]2CC[C@]2(C)[C@@H](NCCCCCCN3C(=O)C=CC3=O)CC[C@@H]12", "Observed Result": "significantly suppressed"}
{"Smiles Code": "COc1ccc2c(c1)CC[C@@H]1[C@@H]2CC[C@]2(C)[C@@H](NCCCCCCN3C(=O)CCC3=O)CC[C@@H]12", "Observed Result": "did not suppress"}
{"Smiles Code": "O=S(=O)(NCCNC/C=C/c1ccc(Br)cc1)c1cccc2cnccc12", "Observed Result": "did not suppress"}
